# System: 11 different microbial strains
# MEASUREMENT_CONTEXT: mean of all 11 MTC values
Counter-ions that a name gives are not always drawn.
PROPERTY: Toxic fingerprint: MTC value, Mean

INSERT INTO results (compound, data_value) VALUES
  ('Cn1c(=O)c2c(ncn2C)n(C)c1=O', 2.250),
  ('[Cl-].[Cl-].[Mg+2] [Magnesium Chloride]', 13.900),
  ('COc1ccc(CCN(C)CCCC(C#N)(c2ccc(OC)c(OC)c2)C(C)C)cc1OC (stereo not shown) [Verapamil HCl]', 0.811),
  ('O=[N+]([O-])[O-].O=[N+]([O-])[O-].[Ba+2] [Barium nitrate]', 1.420),
  ('[N-]=[N+]=[N-] [Sodium Azide]', 0.111),
  ('[Cl-].[K+] [Potassium Chloride]', 29.800),
  ('CSc1ccc2c(c1)N(CCC1CCCCN1C)c1ccccc1S2 (stereo not shown) [Tioridazin HCl]', 0.028);

====

# Test system: 11 different microbial strains
# MEASUREMENT_CONTEXT: mean MTC for the 11 microbial strains
Where a name gives a salt, the structure may show the parent alone.
PROPERTY: Inhibitory concentrations by method: MARA MTCmean

INSERT INTO measurements (compound, data_value) VALUES
  ('O=S(=O)([O-])[O-].[Li+].[Li+] [Lithium Sulphate]', '11.330 mg/mL'),
  ('[F-].[Na+] [Sodium Fluoride]', '8.050 mg/mL'),
  ('O=[N+]([O-])[O-].O=[N+]([O-])[O-].[Ba+2] [Barium nitrate]', '1.420 mg/mL'),
  ('CSc1ccc2c(c1)N(CCC1CCCCN1C)c1ccccc1S2 (centres unmarked) [Tioridazin HCl]', '0.028 mg/mL'),
  ('COc1ccc(CCN(C)CCCC(C#N)(c2ccc(OC)c(OC)c2)C(C)C)cc1OC (centres unmarked) [Verapamil HCl]', '0.811 mg/mL');

====

# System: JG4 (strain of marine origin)
# MEASUREMENT_CONTEXT: Microbial Toxic Concentration; incubation time 16 h
Where a name gives a salt, the structure may show the parent alone.
Strictly below 8 in Toxic fingerprint: MTC value for microorganism no. 4: 1.0. Otherwise: 0.0.

INSERT INTO assay_data (compound, experimental_target, label_class) VALUES
  ('[Cl-].[K+] [Potassium Chloride]', 'JG4 (strain of marine origin)', 0.0),
  ('[Cl-].[Cl-].[Mg+2] [Magnesium Chloride]', 'JG4 (strain of marine origin)', 1.0),
  ('O=[N+]([O-])[O-].O=[N+]([O-])[O-].[Ba+2] [Barium nitrate]', 'JG4 (strain of marine origin)', 1.0),
  ('[N-]=[N+]=[N-] [Sodium Azide]', 'JG4 (strain of marine origin)', 1.0),
  ('COc1ccc(CCN(C)CCCC(C#N)(c2ccc(OC)c(OC)c2)C(C)C)cc1OC (stereo not drawn) [Verapamil HCl]', 'JG4 (strain of marine origin)', 1.0),
  ('C[C@H]1O[C@@H](O[C@H]2[C@@H](O)C[C@H](O[C@H]3[C@@H](O)C[C@H](O[C@H]4CC[C@@]5(C)[C@H](CC[C@@H]6[C@@H]5C[C@@H](O)[C@]5(C)[C@@H](C7=CC(=O)OC7)CC[C@]65O)C4)O[C@@H]3C)O[C@@H]2C)C[C@H](O)[C@@H]1O', 'JG4 (strain of marine origin)', 1.0);
